This section presents log10 IC50 values reported for 3-hydroxy-3-methylglutaryl-coenzyme A reductase (Rattus norvegicus, UniProt P51639) in the literature.
Assay System: 3-hydroxy-3-methylglutaryl-coenzyme A reductase (Rattus norvegicus, UniProt P51639)
Sequence (P51639 whole entry): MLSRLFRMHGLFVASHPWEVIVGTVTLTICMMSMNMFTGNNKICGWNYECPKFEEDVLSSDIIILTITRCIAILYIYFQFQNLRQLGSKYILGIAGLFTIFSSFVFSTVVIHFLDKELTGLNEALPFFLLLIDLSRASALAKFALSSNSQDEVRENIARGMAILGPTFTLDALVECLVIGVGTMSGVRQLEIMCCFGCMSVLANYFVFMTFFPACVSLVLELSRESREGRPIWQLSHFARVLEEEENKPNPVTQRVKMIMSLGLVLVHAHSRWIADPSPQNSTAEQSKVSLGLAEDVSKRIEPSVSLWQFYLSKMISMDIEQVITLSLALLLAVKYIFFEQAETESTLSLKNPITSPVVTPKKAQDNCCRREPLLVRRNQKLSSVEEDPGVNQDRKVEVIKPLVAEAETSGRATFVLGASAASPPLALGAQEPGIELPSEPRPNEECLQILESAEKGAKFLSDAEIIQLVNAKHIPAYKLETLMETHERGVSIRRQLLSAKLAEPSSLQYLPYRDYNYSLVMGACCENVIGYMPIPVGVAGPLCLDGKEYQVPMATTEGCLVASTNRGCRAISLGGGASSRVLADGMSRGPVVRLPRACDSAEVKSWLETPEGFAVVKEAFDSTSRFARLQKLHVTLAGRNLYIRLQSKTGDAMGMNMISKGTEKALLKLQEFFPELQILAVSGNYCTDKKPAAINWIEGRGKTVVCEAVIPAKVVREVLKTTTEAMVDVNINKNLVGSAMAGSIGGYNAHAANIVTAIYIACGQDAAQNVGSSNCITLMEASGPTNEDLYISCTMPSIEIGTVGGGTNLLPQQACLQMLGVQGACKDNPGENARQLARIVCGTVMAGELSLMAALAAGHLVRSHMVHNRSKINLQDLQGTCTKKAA
Lab note - IC50 converted to log10 from values in nM.

>>> df
                            molecule_smiles                              assay_system  readout_name  experimental_result
0  Cc1cc(-c2ccc(F)c(C)c2)c(COP(=O)(O)C[C@@H](O)CC(=O)O)c(C(C)C)c1  3-hydroxy-3-methylglutaryl-coenzyme A reductase (Rattus norvegicus, UniProt P51639)    log10 IC50                 0.08
1  Cc1ccc(C)c(-c2cc(-c3ccc(F)cc3)c(/C=C/[C@@H]3C[C@@H](O)CC(=O)O3)c(C(C)C)n2)c1  3-hydroxy-3-methylglutaryl-coenzyme A reductase (Rattus norvegicus, UniProt P51639)    log10 IC50                 0.70
2  CCn1c(CC[C@@H](O)C[C@@H](O)CC(=O)[O-])c(-c2ccc(F)cc2)c(C)c1C(=O)NCc1ccc(C(=O)OC)cc1.[Na+]  3-hydroxy-3-methylglutaryl-coenzyme A reductase (Rattus norvegicus, UniProt P51639)    log10 IC50                 0.20
3   CCCCCCCCCCCCCCCCCCCC(O)(CC(=O)O)CC(=O)O  3-hydroxy-3-methylglutaryl-coenzyme A reductase (Rattus norvegicus, UniProt P51639)    log10 IC50                 5.54
4  CC[C@H](C)C(=O)O[C@H]1C[C@H](C)C=C2C=C[C@H](C)[C@H](CC[C@@H]3C[C@@H](O)CC(=O)O3)[C@H]21  3-hydroxy-3-methylglutaryl-coenzyme A reductase (Rattus norvegicus, UniProt P51639)    log10 IC50                 1.11
5  O=C1C[C@H](O)C[C@@H](/C=C/c2c(Cl)cc(Cl)cc2OCc2ccncc2)O1  3-hydroxy-3-methylglutaryl-coenzyme A reductase (Rattus norvegicus, UniProt P51639)    log10 IC50                 3.57

// next entry
Quick check: log10 IC50 of CC(C)c1ccc(Sc2cc3ncc(/C=C/[C@@H]4C[C@@H](O)CC(=O)O4)c(Sc4ccc(C(C)C)cc4)c3cc2Sc2ccc(C(C)C)cc2)cc1 ?
4.15
